# tgt: hCMV gH + gL + UL128 + UL130 + UL131A (co-expressed in HEK293T cells) (human cytomegalovirus), P12824
# method description: competitor: 6G4-biotin; cell staining
# condition parameters: remark: other sources report otherwise
Each item that follows carries a reported Inhibition of binding (%).
Value expressed in %; do not type the unit.

Below: 2 binders and their reported Inhibition of binding (%).
binder: 10P3 (antibody, V domains shown) VH: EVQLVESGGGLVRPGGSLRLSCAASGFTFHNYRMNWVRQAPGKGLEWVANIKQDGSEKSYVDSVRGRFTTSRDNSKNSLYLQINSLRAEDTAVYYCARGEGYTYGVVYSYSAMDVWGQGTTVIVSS VL: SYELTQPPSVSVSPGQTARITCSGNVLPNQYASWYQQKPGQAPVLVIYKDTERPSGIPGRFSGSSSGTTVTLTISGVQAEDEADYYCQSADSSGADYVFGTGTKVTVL
reported result: 0
//
binder: 7B13 (antibody, V domains shown) VH: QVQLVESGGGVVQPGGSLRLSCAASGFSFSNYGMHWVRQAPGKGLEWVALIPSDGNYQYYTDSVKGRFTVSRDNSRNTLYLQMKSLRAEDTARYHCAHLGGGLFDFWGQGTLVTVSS VL: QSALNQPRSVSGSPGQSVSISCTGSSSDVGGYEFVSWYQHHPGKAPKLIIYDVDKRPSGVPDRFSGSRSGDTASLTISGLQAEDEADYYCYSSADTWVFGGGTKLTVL
reported result: 100

For the binder 15D8 (antibody, V domains shown) VH: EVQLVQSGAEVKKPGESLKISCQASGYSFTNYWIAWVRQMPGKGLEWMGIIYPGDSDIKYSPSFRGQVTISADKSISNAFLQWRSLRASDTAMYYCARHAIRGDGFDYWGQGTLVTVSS VL: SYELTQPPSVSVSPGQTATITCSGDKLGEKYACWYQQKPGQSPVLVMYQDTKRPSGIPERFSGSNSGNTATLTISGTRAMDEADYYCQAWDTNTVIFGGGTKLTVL , report Inhibition of binding (%).
0

For the binder 8J16 (antibody, V domains shown) VH: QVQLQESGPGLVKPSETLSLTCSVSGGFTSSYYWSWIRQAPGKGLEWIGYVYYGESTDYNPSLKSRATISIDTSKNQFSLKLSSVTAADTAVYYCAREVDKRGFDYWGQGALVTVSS VL: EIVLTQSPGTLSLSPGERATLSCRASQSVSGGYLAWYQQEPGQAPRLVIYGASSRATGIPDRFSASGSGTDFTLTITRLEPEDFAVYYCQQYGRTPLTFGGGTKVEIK , report Inhibition of binding (%).
100

For the binder 4N10 (antibody, V domains shown) VH: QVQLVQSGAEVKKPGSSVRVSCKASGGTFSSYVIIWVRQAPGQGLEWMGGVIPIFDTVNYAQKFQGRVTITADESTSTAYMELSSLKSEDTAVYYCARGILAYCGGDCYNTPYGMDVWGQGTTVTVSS VL: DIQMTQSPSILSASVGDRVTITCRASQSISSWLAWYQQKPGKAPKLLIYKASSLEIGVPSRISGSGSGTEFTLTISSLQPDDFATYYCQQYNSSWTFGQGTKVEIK , report Inhibition of binding (%).
0

Cited source: patent US20170129940A1
